The measurements presented in this section are drawn from patent US9062078B2.

# Target: human orexin 2 receptor (Homo sapiens (Human))
# Experiment Notes: Human orexin 2 receptor radioligand binding (competitive, [3H]-EMPA, HEK293 cell preparations)
# Experimental Context: hOX2 Ki (nm)
Please use t for Ki under 1000 nM and f for everything else, ties included.

Exam item: Given the entry Cn1cc(-c2ccccc2)c(C(=O)N2C3CCC2C(COc2ccccn2)C3)n1 (racemic) , would its reported Ki be below 1000 nM?
Marked response: t

Exam item: Given the entry Cc1ccc(-n2nccn2)c(C(=O)N2C3CCC2C(Nc2cnc(C(F)(F)F)cn2)C3)n1 (racemic) , would its reported Ki be below 1000 nM?
Marked response: f

Exam item: Given the entry CCOc1ccc(C)nc1C(=O)N1C2CCC1C(COc1ccc(C(F)(F)F)cn1)C2 (racemic) , would its reported Ki be below 1000 nM?
Marked response: f

Exam item: Given the entry Cc1ccc(C(=O)N2C3CCC2C(COc2cnc4ccccc4n2)C3)c(-n2nccn2)n1 (racemic) , would its reported Ki be below 1000 nM?
Marked response: f

Exam item: Given the entry Cc1cc(C)nc(NCC2CC3CCC2N3C(=O)c2cc(F)ccc2-n2nccn2)n1 (racemic) , would its reported Ki be below 1000 nM?
Marked response: t

Exam item: Given the entry CCOc1nccc(Br)c1C(=O)N1C2CCC1C(COc1ccccn1)C2 (racemic) , would its reported Ki be below 1000 nM?
Marked response: f

Exam item: Given the entry Cc1ccc2ccccc2c1C(=O)N1C2CCC1C(COc1ccc(F)cn1)C2 (racemic) , would its reported Ki be below 1000 nM?
Marked response: t

Exam item: Given the entry Cc1ccc(-n2nccn2)c(C(=O)N2C3CCC2C(COc2cnccn2)C3)n1 (racemic) , would its reported Ki be below 1000 nM?
Marked response: f

----------
# Target: human orexin 1 receptor (Homo sapiens (Human), UniProt O43613)
# Sequence (O43613 whole entry): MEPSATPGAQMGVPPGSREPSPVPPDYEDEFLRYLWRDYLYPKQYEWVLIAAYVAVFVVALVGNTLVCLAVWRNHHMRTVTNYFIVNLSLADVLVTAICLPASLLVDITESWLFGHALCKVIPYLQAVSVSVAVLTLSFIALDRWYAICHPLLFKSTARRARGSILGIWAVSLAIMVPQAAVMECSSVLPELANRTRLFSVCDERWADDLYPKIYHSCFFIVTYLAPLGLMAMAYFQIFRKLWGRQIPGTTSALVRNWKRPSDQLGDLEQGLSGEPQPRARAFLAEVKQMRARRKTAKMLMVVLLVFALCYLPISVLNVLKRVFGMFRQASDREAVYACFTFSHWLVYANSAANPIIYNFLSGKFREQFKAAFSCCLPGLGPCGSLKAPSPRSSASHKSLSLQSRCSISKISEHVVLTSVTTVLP
# Experiment Notes: Human orexin 1 receptor radioligand binding (competitive, [3H]-SB674042, CHO cell preparations)
# Experimental Context: human orexin 1 receptor, [3H]-SB674042 competition binding; read-out: hOX1 Ki (nm)
pKi: −log10 of the molar value.
Tick True if pKi is 7 or greater. Tick False if pKi is less than 7.

Exam item: Has Cc1noc(-c2ccccc2C(=O)N2C3CCC2C(COc2cccc(C(F)(F)F)n2)C3)n1 (racemic) a recorded pKi greater than or equal to 7?
Marked response: False

Exam item: Has CCOc1ccc2ccccc2c1C(=O)N1C2CCC1C(COc1ccccn1)C2 (racemic) a recorded pKi greater than or equal to 7?
Marked response: True

Exam item: Has Cc1cc(C)nc(NCC2CC3CCC2N3C(=O)c2cc(F)ccc2-n2nccn2)n1 (racemic) a recorded pKi greater than or equal to 7?
Marked response: False

Exam item: Has Cc1ccc(N2CCCC2)c(C(=O)N2C3CCC2C(COc2ccc(F)cn2)C3)n1 (racemic) a recorded pKi greater than or equal to 7?
Marked response: True

Exam item: Has `O=C(c1cccc(F)c1-c1cccnn1)N1[C@@H]2CC[C@H]1[C@H](Nc1cnc(C(F)(F)F)cn1)C2` a recorded pKi greater than or equal to 7?
Marked response: False

Exam item: Has Cc1ccc(C(=O)N2C3CCC2C(COc2ccccn2)C3)c(-n2ccnn2)n1 (racemic) a recorded pKi greater than or equal to 7?
Marked response: False

Exam item: Has Cc1cc(C)nc(NC2CC3CCC2N3C(=O)c2ccc(F)cc2-n2nccn2)n1 (racemic) a recorded pKi greater than or equal to 7?
Marked response: False

----------
# Target: human orexin 2 receptor (Homo sapiens (Human))
# Experiment Notes: Human orexin 2 receptor radioligand binding (competitive, [3H]-EMPA, HEK293 cell preparations)
# Experimental Context: hOX2 Ki (nm)
Result Type: pKi
# log scale: pKi equals minus log10 of the concentration in mol/L

Exam item: Item Cc1cnn(-c2ccc(C)nc2C(=O)N2C3CCC2C(COc2ncc(F)cn2)C3)c1 (racemic) : provide pKi
Marked response: 5.44

Exam item: Item O=C(c1c(F)cccc1-n1nccn1)N1C2CCC1C(COc1ccc(F)cn1)C2 (racemic) : provide pKi
Marked response: 6.97

Exam item: Item `O=C(c1ccccc1-n1nccn1)N1[C@@H]2CC[C@H]1[C@H](Nc1cnc(C(F)(F)F)cn1)C2` : provide pKi
Marked response: 6.15

Exam item: Item Cc1ccc(C(=O)N2C3CCC2C(Nc2ccc(C(F)(F)F)cn2)C3)c(-n2nccn2)n1 (racemic) : provide pKi
Marked response: 5.82

Exam item: Item CCOc1ccc(C)nc1C(=O)N1C2CCC1C(COc1ccc(Br)cn1)C2 (racemic) : provide pKi
Marked response: 5.74

Exam item: Item Cc1ccc(-n2nccn2)c(C(=O)N2C3CCC2C(COc2ncccn2)C3)n1 (racemic) : provide pKi
Marked response: 5.31

Exam item: Item Cc1cccc(OCC2CC3CCC2N3C(=O)c2nc(C)ccc2-n2nccn2)n1 (racemic) : provide pKi
Marked response: 6.73

Exam item: Item O=C(c1ccccc1-n1nccn1)N1C2CCC1C(Nc1cnc3ccccc3n1)C2 (racemic) : provide pKi
Marked response: 6.66

Exam item: Item O=C(c1ccccc1-n1nccn1)N1C2CCC1C(Nc1cnc(C(F)(F)F)cn1)C2 (single isomer, unassigned) [Example 183b] : provide pKi
Marked response: 6.15

Exam item: Item O=C(c1occc1-c1ccccc1)N1C2CCC1C(COc1ccc(F)cn1)C2 (racemic) : provide pKi
Marked response: 6.42

Exam item: Item O=C(c1ccccc1-c1cccs1)N1C2CCC1C(COc1ccc(F)cn1)C2 (racemic) : provide pKi
Marked response: 7.92

Exam item: Item Cc1ccc(-n2nccn2)c(C(=O)N2C3CCC2C(COc2ccccn2)C3)n1 (centres unmarked) [Example 6] : provide pKi
Marked response: 6.37

----------
# Target: human orexin 2 receptor (Homo sapiens (Human), UniProt O43614)
# Sequence (O43614 whole entry): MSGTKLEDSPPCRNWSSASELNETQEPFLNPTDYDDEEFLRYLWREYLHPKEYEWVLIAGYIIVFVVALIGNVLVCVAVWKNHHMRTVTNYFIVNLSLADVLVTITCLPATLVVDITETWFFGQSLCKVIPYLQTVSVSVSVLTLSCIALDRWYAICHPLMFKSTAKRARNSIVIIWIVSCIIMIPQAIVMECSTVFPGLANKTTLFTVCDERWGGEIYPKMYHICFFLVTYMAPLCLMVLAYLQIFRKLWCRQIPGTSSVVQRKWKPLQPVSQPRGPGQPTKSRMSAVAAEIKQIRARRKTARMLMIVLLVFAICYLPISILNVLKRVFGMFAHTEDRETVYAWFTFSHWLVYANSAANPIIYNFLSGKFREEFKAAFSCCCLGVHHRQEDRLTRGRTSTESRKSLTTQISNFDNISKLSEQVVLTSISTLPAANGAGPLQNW
# Experiment Notes: Human orexin 2 receptor radioligand binding (competitive, [3H]-EMPA, HEK293 cell preparations)
# Experimental Context: human orexin 2 receptor, [3H]-EMPA competition binding; read-out: hOX2 Ki (nm)
Result Type: pKi
# log scale: pKi equals minus log10 of the concentration in mol/L

Exam item: Item O=C(c1ccccc1-n1nccn1)N1C2CCC1C(Nc1ccccn1)C2 (racemic) : provide pKi
Marked response: 5.05

Exam item: Item `O=C(c1cc(F)ccc1-c1ncccn1)N1[C@@H]2CC[C@H]1[C@H](Nc1cnc(C(F)(F)F)cn1)C2` : provide pKi
Marked response: 6.14

Exam item: Item CCOc1ccnc(OCC)c1C(=O)N1C2CCC1C(COc1ccccn1)C2 (racemic) : provide pKi
Marked response: 6.82

Exam item: Item Cc1cccc(OCC2CC3CCC2N3C(=O)c2ccc(C)nc2-n2ccnn2)n1 (racemic) : provide pKi
Marked response: 5.64

Exam item: Item O=C(c1ccccc1-n1nccn1)N1C2CCC1C(COc1cnc3ccccc3n1)C2 (racemic) : provide pKi
Marked response: 6.33

Exam item: Item Cc1cc(C)nc(OCC2CC3CCC2N3C(=O)c2c(F)cccc2-c2ncccn2)n1 (racemic) : provide pKi
Marked response: 7.04

Exam item: Item COc1cnc(C(=O)N2C3CCC2C(COc2ccc(F)cn2)C3)c(-n2nccn2)c1 (racemic) : provide pKi
Marked response: 5.32

Exam item: Item O=C(c1ccccc1-n1nccn1)N1C2CCC1C(Nc1cccc(C(F)(F)F)n1)C2 (racemic) : provide pKi
Marked response: 6.13

Exam item: Item `Cc1cccc(C(=O)N2[C@@H]3CC[C@H]2[C@H](Nc2cnc(C(F)(F)F)cn2)C3)c1-c1ncco1` : provide pKi
Marked response: 6.92

Exam item: Item Cc1ccc(-c2ncccn2)c(C(=O)N2C3CCC2C(COc2nc(C)cc(C)n2)C3)c1 (racemic) : provide pKi
Marked response: 7.23

Exam item: Item Cc1ccc(-c2ncccn2)c(C(=O)N2C3CCC2C(Nc2ccc(Br)cn2)C3)n1 (racemic) : provide pKi
Marked response: 6.11

Exam item: Item Cc1cc(-c2ccc(C)nc2C(=O)N2C3CCC2C(COc2ncc(F)cn2)C3)on1 (racemic) : provide pKi
Marked response: 5.54

----------
# Target: rat orexin 1 receptor (Rattus norvegicus, UniProt P56718)
# Experiment Notes: Rat orexin 1 receptor radioligand binding (competitive, [3H]-SB674042, HEK293 cell preparations)
# Experimental Context: rat orexin 1 receptor, [3H]-SB674042 competition binding; read-out: rOX1 Ki (nm)
Please use 1 (yes) for Ki under 800 nM and 0 (no) for everything else, ties included.

Exam item: Given the entry Cc1ccc(-n2nccn2)c(C(=O)N2C3CCC2C(COc2ccncc2)C3)n1 (racemic) , would its reported Ki be below 800 nM?
Marked response: 0 (no)

Exam item: Given the entry COc1ccc2cccnc2c1C(=O)N1C2CCC1C(COc1ccccn1)C2 (racemic) , would its reported Ki be below 800 nM?
Marked response: 1 (yes)

Exam item: Given the entry CCOc1nccc(Br)c1C(=O)N1C2CCC1C(COc1ccccn1)C2 (racemic) , would its reported Ki be below 800 nM?
Marked response: 1 (yes)

Exam item: Given the entry Cn1cc(-c2ccccc2)c(C(=O)N2C3CCC2C(COc2ccccn2)C3)n1 (racemic) , would its reported Ki be below 800 nM?
Marked response: 1 (yes)

Exam item: Given the entry Cc1cc(-c2ccc(C)nc2C(=O)N2C3CCC2C(COc2ccccn2)C3)on1 (racemic) , would its reported Ki be below 800 nM?
Marked response: 1 (yes)

Exam item: Given the entry Cc1ccc(C(=O)N2C3CCC2C(Nc2ccc(C(F)(F)F)cn2)C3)c(-n2nccn2)n1 (racemic) , would its reported Ki be below 800 nM?
Marked response: 1 (yes)

Exam item: Given the entry `O=C(c1nc2ccccc2[nH]1)N1[C@@H]2CC[C@H]1[C@H](Nc1cnc(C(F)(F)F)cn1)C2` , would its reported Ki be below 800 nM?
Marked response: 0 (no)

Exam item: Given the entry Cc1ccc(-n2cccn2)c(C(=O)N2C3CCC2C(COc2ccccn2)C3)n1 (racemic) , would its reported Ki be below 800 nM?
Marked response: 1 (yes)
